# assay.explanation: Solubility in organic solvents at −10° C.
# Assay type: physicochemical
# assay.context: tetralin, −10° C.
measured.metric: soluble at (concentration) in tetralin (%)

[
  {
    "compound": "c1ccc(-c2ccccc2OCc2ccccc2COc2ccccc2-c2ccccc2)cc1",
    "soluble at (concentration) in tetralin [%]": 10
  },
  {
    "compound": "CCCCCCCCCCCCCCOc1ccccc1-c1ccccc1 [2-(tetradecyloxy)-1,1′-biphenyl]",
    "soluble at (concentration) in tetralin [%]": 7.5
  },
  {
    "compound": "CCCCCCCCCCCCOc1ccccc1-c1ccccc1 [2-(dodecyloxy)-1,1′-biphenyl]",
    "soluble at (concentration) in tetralin [%]": 10
  }
]

----------
measured.metric: melting point

Below, 4 molecules whose answers are already recorded.
[
  {
    "molecule": "CCCCCCCCCCCCCCCCCCOc1ccccc1-c1ccccc1",
    "melting point": "42 to 45 °C"
  },
  {
    "molecule": "CCCCCCCCCCCCOc1ccccc1-c1ccccc1",
    "melting point": "27 to 29 °C"
  },
  {
    "molecule": "c1ccc(-c2ccccc2OCc2ccc(-c3ccc(COc4ccccc4-c4ccccc4)cc3)cc2)cc1",
    "melting point": "149 to 151 °C"
  },
  {
    "molecule": "c1ccc(-c2ccccc2OCc2ccc(COc3ccccc3-c3ccccc3)cc2)cc1",
    "melting point": "140 to 142 °C"
  }
]

The recorded melting point for c1ccc(-c2ccccc2OCCCCOc2ccccc2-c2ccccc2)cc1 [1,4-bis([1,1′-biphenyl]-2-yloxy)butane] is 62 to 67 °C
